- Assay Name: Toxicity liver stage against HepG2, at 10uM
- Assay type: cell-based
- Design: test concentration 10 uM, cell line HepG2-A16-CD81EGFP
- Condition Label: human, HepG2-A16-CD81EGFP cells; read-out: INHIBITION
Experimental Readout: cytotoxicity at 10 µM (%)
Form entry: value (%) — number only.

Take a look at these entries with their results.
O=C(C1CN(CC2CC2)CC12CCOCC2)N1CCCC1 (stereo unspecified) = 7.28
CN(Cc1ccc2c(c1)OCO2)Cc1cscn1 = -11.1
Cc1cc(C)n(C2CN(CC(=O)N(C)Cc3cnn(C)c3)C2)n1 = -5.85
O=C(NCCc1cccs1)N1CCCC1CCCO (stereo unspecified) = 5.82
N#Cc1ccccc1OCCN1CCC(C(=O)N2CCOCC2)CC1 = -47.2

Kindly consider the entry below.
Kindly indicate its recorded cytotoxicity at 10 µM. Item: O=C(Cc1cccc(O)c1)N1CCCC(O)(CN2CCOCC2)CC1 (stereo unspecified) -3.28

----------
- Assay Name: Toxicity liver stage against HepG2, at 10uM
- Format: cell-based
- Set-up: test concentration 10 uM, cell line HepG2-A16-CD81EGFP
- Condition Label: human, HepG2-A16-CD81EGFP cells; read-out: INHIBITION
Experimental Readout: cytotoxicity at 10 µM
Please append the unit to your numeric answer.

Take a look at these entries with their results.
O=C(c1ncncc1Cl)N1CCC2(CCCC2)CC1 = 1.06%
CCCS(=O)(=O)N1Cc2nccn2CC(Cn2cccn2)C1 (configuration not stated) = -120%
Cc1ccc(N2CC3(CCN(C(=O)c4ccoc4)C3)C2)nn1 = -11.6%

Kindly indicate its recorded cytotoxicity at 10 µM. Item: COCCNC(=O)[C@@H]1C[C@@H]2CCN(c3ncccn3)C[C@H]2O1 -2.48%

Kindly indicate its recorded cytotoxicity at 10 µM. Item: c1ccc(CCNCC2Cn3nncc3CO2)cc1 (configuration not stated) 7.61%

Kindly indicate its recorded cytotoxicity at 10 µM. Item: c1cc(CN2CCc3ncc(CN4CCCCC4)n3CC2)cs1 -5.21%

----------
- Assay Name: Toxicity liver stage against HepG2, at 10uM
- Type: cell-based
- Design: test concentration 10 uM, cell line HepG2-A16-CD81EGFP
- Condition Label: human, HepG2-A16-CD81EGFP cells; read-out: INHIBITION
Experimental Readout: cytotoxicity at 10 µM (%)
Form entry: value (%) — number only.

Cc1nc(NCc2cccnc2)cc(C2COCCN2)n1 (stereo unspecified) = 3.78
Cc1nc(C(=O)N2CCCC2c2c(C)nn(C)c2Cl)ccc1C#N (stereo unspecified) = -12.8
O=S(=O)(C1CC1)N1CC[C@@H](OCC2CC2)[C@@H]1Cc1ccncc1 = 10.9
CC(Cn1cccn1)NC(=O)NCCc1cccnc1 (stereo unspecified) = -5.25
CC(C)NC(=O)C1CN(C(=O)Cc2cccc(F)c2)CC12CCOCC2 (stereo unspecified) = 4.58
CN(C)C(=O)C1CCN(c2cncc(-n3cccn3)n2)CC1 = -10.9
Cc1nn(C)c(C)c1C1CCCN1C(=O)CCc1ccco1 (stereo unspecified) = -21.5
CN1CCN(Cc2cn3c(n2)CN(C(=O)c2ccco2)CC3)CC1 = -4

Kindly indicate its recorded cytotoxicity at 10 µM. Item: COC(=O)c1cccc(C(=O)N2CCN(C(=O)N(C)C)CC2(C)C)c1 11.9

Kindly indicate its recorded cytotoxicity at 10 µM. Item: Cc1nccc(N2CCC(=O)N(Cc3ccc(F)cc3)C(C(C)C)C2)n1 (stereo unspecified) -0.449

Kindly indicate its recorded cytotoxicity at 10 µM. Item: CN(C)c1nccc(-c2cnc(N(C)C)[nH]c2=O)n1 -1.17

----------
- Assay Name: Toxicity liver stage against HepG2, at 10uM
- Type: cell-based
- Parameters: test concentration 10 uM, cell line HepG2-A16-CD81EGFP
- Condition Label: human, HepG2-A16-CD81EGFP cells; read-out: INHIBITION
Form field: cytotoxicity at 10 µM (one value per entry).
Please append the unit to your numeric answer.

COc1cccc(NC(=O)N(CCO)C2CCc3ccccc32)c1 (centres undefined) = -1.08%
CCOCCOC(C)C(=O)NCc1ccc(N2CCCCC2)cc1 (centres undefined) = 11.6%
CCc1cnc(CN(C(C)=O)C2CCN(CC3(O)CCCCC3)C2)o1 (centres undefined) = 0.195%
O=C(c1cccc2c1OCO2)N1CCCC1c1noc(C2CC2)n1 (centres undefined) = -23.2%
CNC(=O)[C@@H]1C[C@H]2CN(Cc3nccs3)C[C@H]2N1C = 7.73%
Cc1oncc1C(=O)N1CCC2(CCN(Cc3cccnc3)C2=O)C1 (centres undefined) = -144%

Kindly indicate its recorded cytotoxicity at 10 µM. Item: CCSCCC(=O)Nc1ncn(CC(=O)NCc2ccccc2)n1 20%

Kindly indicate its recorded cytotoxicity at 10 µM. Item: Cc1cc(C(=O)NCC(O)CN2CCCC2=O)ccc1F (centres undefined) 5.24%

----------
- Assay Name: Toxicity liver stage against HepG2, at 10uM
- Format: cell-based
- Design: test concentration 10 uM, cell line HepG2-A16-CD81EGFP
- Condition Label: human, HepG2-A16-CD81EGFP cells; read-out: INHIBITION
Experimental Readout: cytotoxicity at 10 µM (%)
Form entry: value (%) — number only.

Take a look at these entries with their results.
CCNC(=O)[C@@H]1C[C@@H](N)CN1C(=O)C1(c2ccc(OC)cc2)CCCC1 = 3.95
Cc1cc(C(=O)N[C@H]2Cc3ccccc3[C@@H]2N)c(=O)[nH]c1C = 11.2
COC(CNC(=O)c1cn(C)nn1)c1ccc(C)s1 (stereo not given) = -8.11
CCN(Cc1nc2c(cnn2C)c(=O)[nH]1)c1ccc(OC)c(OC)c1 = 2.31

Kindly consider the entry below.
Kindly indicate its recorded cytotoxicity at 10 µM. Item: Cc1cc(C(=O)N2C[C@@H]3COC[C@]3(CN(C)C)C2)sc1C -146

----------
- Assay Name: Toxicity liver stage against HepG2, at 10uM
- Type: cell-based
- Parameters: test concentration 10 uM, cell line HepG2-A16-CD81EGFP
- Condition Label: human, HepG2-A16-CD81EGFP cells; read-out: INHIBITION
Form field: cytotoxicity at 10 µM (one value per entry).
Form entry: value (%) — number only.

Take a look at these entries with their results.
Cc1cccc(C(=O)N2CCN(S(C)(=O)=O)[C@@H](C)C2)c1C = 3.46
O=C(NCc1ccccn1)[C@]12COC[C@H]1CN(Cc1cccnc1)C2 = 5.64
COCC1CC2(CCN(C(=O)c3occc3C)CC2)CN1C(C)C (stereo unspecified) = 12

Kindly indicate its recorded cytotoxicity at 10 µM. Item: Cc1ccnc(OC[C@]23COC[C@H]2CN(C(=O)Cc2ccsc2)C3)n1 -0.376

Kindly indicate its recorded cytotoxicity at 10 µM. Item: CCc1cc(CNC(=O)Nc2cc(F)cc(N3CCCC3)c2)on1 4.79

Kindly indicate its recorded cytotoxicity at 10 µM. Item: CC(C)c1noc(CN(CCC2CCCCC2)CC(N)=O)n1 2.94

----------
- Assay Name: Toxicity liver stage against HepG2, at 10uM
- Assay type: cell-based
- Set-up: test concentration 10 uM, cell line HepG2-A16-CD81EGFP
- Condition Label: human, HepG2-A16-CD81EGFP cells; read-out: INHIBITION
Form field: cytotoxicity at 10 µM (one value per entry).
Form entry: value (%) — number only.

Take a look at these entries with their results.
COc1ccc(C(C)N2CCC(CO)CC2)cc1Cl (stereo unspecified) = -51.1
O=C(O)c1cc(-c2ccoc2)cc(S(=O)(=O)N2CCSCC2)c1 = 0.49
O=C1CC(NS(=O)(=O)c2ccc(Br)cc2)CN1 (stereo unspecified) = -0.154
O=C(Nc1cnccn1)[C@@H]1C[C@H]2OCC[C@H]2N(Cc2ccsc2)C1 = -2.31
O=C(C[S+]([O-])c1ccc(F)c(F)c1)NCc1cc(F)cc(F)c1 (stereo unspecified) = 5.58

Kindly consider the entry below.
Kindly indicate its recorded cytotoxicity at 10 µM. Item: CC1(C2CCN(CC(N)=O)CC2)CN(Cc2ccccc2)C(=O)CO1 (stereo unspecified) -19.9

----------
- Assay Name: Toxicity liver stage against HepG2, at 10uM
- Format: cell-based
- Parameters: test concentration 10 uM, cell line HepG2-A16-CD81EGFP
- Condition Label: human, HepG2-A16-CD81EGFP cells; read-out: INHIBITION
Form field: cytotoxicity at 10 µM (one value per entry).
Form entry: value (%) — number only.

Take a look at these entries with their results.
Cc1cccc(-c2nc(C)nn2CN2CCN(S(C)(=O)=O)CC2)c1 = 0.729
O=C(c1ccco1)N1C2CCC(O)(CC2)C1CO (configuration not stated) = 6.88
O=C(Cc1ccccn1)N1CCn2cc(Cn3cncn3)nc2C1 = -129
COc1cccc(O[C@H]2CCN(c3nc(C)cc(C)n3)CC[C@@H]2O)c1 = 2.58
CCCc1noc(C2CCN(C(=O)CCn3nc(C)cc3C)CC2)n1 = 7.47

Kindly indicate its recorded cytotoxicity at 10 µM. Item: O=C(Nc1ccccc1)N1C2CCC(O)(CC2)C1CN1CCOCC1 (configuration not stated) 10

Kindly indicate its recorded cytotoxicity at 10 µM. Item: Cc1nc(N2CCOCC2)nc(C)c1NC(=O)COc1ccccc1 4.17

Kindly indicate its recorded cytotoxicity at 10 µM. Item: O=C(CN1CCCCC1Cn1cncn1)Nc1ccncc1 (configuration not stated) 11.2

Kindly indicate its recorded cytotoxicity at 10 µM. Item: CCC(NC(=O)c1nn(C)cc1C(=O)O)c1ccc(C)cc1C (configuration not stated) -8.66

Kindly indicate its recorded cytotoxicity at 10 µM. Item: CN(C)C(=O)CS(=O)(=O)Cc1cc(Cl)c2c(c1)OCCCO2 -5.08

Kindly indicate its recorded cytotoxicity at 10 µM. Item: CS(=O)(=O)N1CCN(c2cc(-n3cccc3)ncn2)CC1 4.65

Kindly indicate its recorded cytotoxicity at 10 µM. Item: CCc1cc(N2CCC(N[C@@H]3CS(=O)(=O)C[C@H]3O)CC2)nc(N(C)C)n1 -0.157

Kindly indicate its recorded cytotoxicity at 10 µM. Item: CCc1nc(CN2CCCN(C(=O)C(C)n3cncn3)CC2)cs1 (configuration not stated) -7.26

Kindly indicate its recorded cytotoxicity at 10 µM. Item: CCc1cc(CN(C)C(=O)CN2CC3(CCNCC3)OC2=O)on1 0.394

Kindly indicate its recorded cytotoxicity at 10 µM. Item: Cc1[nH]ncc1C(C)NCc1ccc(F)cc1 (configuration not stated) 3.28

Kindly indicate its recorded cytotoxicity at 10 µM. Item: Cc1ccc(=O)n(CC2(O)CCN(Cc3cc(C)c(O)c(C)c3)CC2)n1 1.7

Kindly indicate its recorded cytotoxicity at 10 µM. Item: CS(=O)(=O)NCC1CCCCN1C(=O)Nc1cccnc1N1CCCC1 (configuration not stated) -3.45

Kindly indicate its recorded cytotoxicity at 10 µM. Item: O=C(O)[C@H]1C[C@H](C(=O)NC2CC2)CN(Cc2ccc(-c3cc[nH]n3)s2)C1 2.89

Kindly indicate its recorded cytotoxicity at 10 µM. Item: c1cnn(Cc2ccc(CN3CCC4(CCNCC4)C3)cc2)c1 -15.6

Kindly indicate its recorded cytotoxicity at 10 µM. Item: O=C(O)c1ccc(=O)n(CC(c2ccc(Cl)cc2)N2CCOCC2)c1 (configuration not stated) 2.91

Kindly indicate its recorded cytotoxicity at 10 µM. Item: Cc1cccnc1CC(C)NC1CCSCC1 (configuration not stated) 2.28

Kindly indicate its recorded cytotoxicity at 10 µM. Item: Cc1ccc(C(=O)N2C[C@@H]3CC[C@H]2CN(S(=O)(=O)N(C)C)C3)c(O)c1 3.41

Kindly indicate its recorded cytotoxicity at 10 µM. Item: COc1ccccc1C(C)N1CCN(S(C)(=O)=O)CC1 (configuration not stated) 9.62

Kindly indicate its recorded cytotoxicity at 10 µM. Item: CCn1nc(C)c2nc(C(C)C)nc(N3CCOCC3)c21 2.88

Data provenance: ChEMBL document CHEMBL4513216
